Test system: C6
Test: Cytotoxicity against Rattus norvegicus (rat) C6 cells after 4 days by cresylecth violet-staining method
Assay type: functional, cell-based
Conditions: Rattus norvegicus, C6, 96 h
pEC50: −log10 of the molar value.

- Compound: "COc1ccccc1-c1ccc(CC2c3c(O)cc(O)cc3CCN2C(=O)OC(C)(C)C)cc1 (stereo not drawn)"
  Tgt: "C6"
  pEC50: 5.13
- Compound: "COc1cc2c(c(OC)c1)C(Cc1ccc(-c3ccccc3OC)cc1)N(C(=O)OC(C)(C)C)CC2 (stereo not drawn)"
  Tgt: "C6"
  pEC50: 4.22
- Compound: "Oc1cc(O)c2c(c1)CCNC2Cc1ccc(Br)cc1 (stereo not drawn)"
  Tgt: "C6"
  pEC50: 4.90
- Compound: "O=NN(CCCl)C(=O)NCCCl"
  Tgt: "C6"
  pEC50: 5.32
- Compound: "CC(C)(C)OC(=O)N1CCc2cc(O)cc(O)c2C1Cc1ccc(-c2ccccc2)cc1 (stereo not drawn)"
  Tgt: "C6"
  pEC50: 5.30
- Compound: "Cn1nnc2c(C(N)=O)ncn2c1=O [TEMOZOLOMIDE]"
  Tgt: "C6"
  pEC50: 4.78
- Compound: "Oc1cc(O)c2c(c1)CCNC2Cc1ccc(-c2ccccc2)cc1 (stereo not drawn)"
  Tgt: "C6"
  pEC50: 5.68
- Compound: "CC(C)(C)OC(=O)N1CCc2cc(O)cc(O)c2C1Cc1ccc(Br)cc1 (stereo not drawn)"
  Tgt: "C6"
  pEC50: 5.15

----------
Experiment: Cytotoxicity against Rattus norvegicus Sprague-Dawley (rat) astrocytes after 4 days by cresylecth violet-staining method
Format: cell-based, Astrocyte
Conditions: Rattus norvegicus, Sprague-Dawley, Astrocyte, 96 h; read-out: EC50

- Compound: "O=NN(CCCl)C(=O)NCCCl"
  Result unit: "µM"
  EC50: 54.8
- Compound: "COc1ccccc1-c1ccc(CC2NCCc3cc(O)cc(O)c32)cc1 (configuration not stated)"
  Result unit: "µM"
  EC50: 15.7
- Compound: "CC(C)(C)OC(=O)N1CCc2cc(O)cc(O)c2C1Cc1ccc(Br)cc1 (configuration not stated)"
  Result unit: "µM"
  EC50: 9.97
- Compound: "Oc1cc(O)c2c(c1)CCNC2Cc1ccc(-c2ccccc2)cc1 (configuration not stated)"
  Result unit: "µM"
  EC50: 11.9
- Compound: "Oc1cc2c(cc1O)C(Cc1ccc(-c3ccccc3)cc1)NCC2 (racemic)"
  Result unit: "µM"
  EC50: 27.4
- Compound: "COc1cc2c(c(OC)c1)C(Cc1ccc(-c3ccccc3)cc1)NCC2 (configuration not stated)"
  Result unit: "µM"
  EC50: 8.95
- Compound: "COc1cc2c(c(OC)c1)C(Cc1ccc(-c3ccccc3OC)cc1)NCC2 (stereo in doubt; (-)25)"
  Result unit: "µM"
  EC50: 15.7
- Compound: "CC(C)(C)OC(=O)N1CCc2cc(O)cc(O)c2C1Cc1ccc(-c2ccccc2)cc1 (configuration not stated)"
  Result unit: "µM"
  EC50: 8.58
- Compound: "COc1ccccc1-c1ccc(CC2c3c(O)cc(O)cc3CCN2C(=O)OC(C)(C)C)cc1 (configuration not stated)"
  Result unit: "µM"
  EC50: 67.5
- Compound: "Cn1nnc2c(C(N)=O)ncn2c1=O [TEMOZOLOMIDE]"
  Result unit: "µM"
  EC50: 51.8
- Compound: "Oc1cc(O)c2c(c1)CCNC2Cc1ccc(Br)cc1 (configuration not stated)"
  Result unit: "µM"
  EC50: 23.9
- Compound: "COc1cc2c(c(OC)c1)C(Cc1ccc(Br)cc1)N(C(=O)OC(C)(C)C)CC2 (configuration not stated)"
  Result unit: "µM"
  EC50: 28.1
